Origin of values: patent US20260116991A1

# Target System: T1, human GPC3-His protein (human, UniProt P51654 25-559)
# T1 construct: also called human GPC3 protein; not shown: His tag
# Protocol Text: SPR, antibody captured on Protein A chip, human GPC3-His analyte;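 note: measured at 25 °C flow cell, human GPC3-His injected at five concentrations up to 200 nM, 240 s association, up to 600 s dissociation, double-referenced, fitted to Langmuir 1:1 model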
Property Label: Kd (nM)
Reply with just the number (in nM).

- Binder: "F2.92.1 (antibody, human IgG1, kappa, V domains shown, Human-murine chimeric antibody) VH: QVQLQQSGAELVRPGASVKLSCKASGYIFSDYEIHWVKQTPVHGLECIGAVDPETGGTAYNQKFKGKATLTADKSSSTAYMELRSLTSEDSAVYFCTRFYSFAYWGQGTLVTVST VL: DVVMTQTPLSLPVSLGDQGSISCRSSQSLVHSNGNTYLQWYLQKPGQSPKLLIYKVSNRFSGVPDRFSGSGSGTDFTLKISRVEAEDLGVYFCCQSTHVLPTFGGGTKLEIKR"
  Kd / nM: 0.6

What value of measured Kd is listed for F1.92.17 (antibody, human IgG1, kappa, V domains shown, Human-murine chimeric antibody) VH: EVQLQQSGPELVKPGASVKMSCKASGYTFTDYNMHWVRQSHGKSLEWIGYINPNNGDTIYNQNFKGKATLTVNKSSSTAYMELRSLTSEDSAVYYCSRTITYYYSMDYWGPGTSVTVSS VL: QIVLTQSPALMSASPGEKVTMTCSASSSVSYMYWYQQKPRSSPKPWIYLTSNLASGVPARFSGSGSGTSYSLTISSMEAEDAATYYCQQWSSNPLTFGAGTKLELKR ?
7.46

What value of measured Kd is listed for F1.110.24 (antibody, human IgG1, kappa, V domains shown, Human-murine chimeric antibody) VH: EVKLVESGGGLVQPGGSLKLSCAASGFTFSDFYMYWVRQTPEKRLEWVAFISNGGGSTYYPDTVKGRFTISRDNVKNTLYLQMSRLKSEDTAMYYCARPDTSWFAYWGQGSLVTVSA VL: DIQMTQTTSSLSASLGDRVTISCRASQDIDNYLNWYQQKPDGTVKVLISYTSRLHSGVPSRFSGSGSGTDYSLTISNLEQEDIATYFCQQGNTLPWTFGGGTKLEIKR ?
2.5
